These data points were gathered from ChEMBL document CHEMBL1201862.

- Tested on: RPMI-8226
- protocol: NCI tumour cell line growth inhibition, 48 h
Active and inactive are the calls of the source. No stated cut-off is given here; in the data, active = GI50 up to about 1.1 µM and inactive = higher.

compound	GI50
CCC(C)C1=C(OC(C)=O)[N+]2([O-])Oc3ccc(-c4c(OC(C)=O)c(OC(C)=O)c(-c5ccc(OC(C)=O)cc5)c(OC(C)=O)c4OC(C)=O)cc3OC2(C(C)CC)C(=O)N1OC(C)=O (centres undefined)	10.3 µM (inactive)
Cc1nc2ccccc2c(=O)n1NC(=O)c1ccc(CS)cc1	11.1 µM (inactive)
O=S1(=O)OCCOS(=O)(=O)C1(F)Cc1ccccc1	> 100 µM (inactive)
COc1ccc(C(=C2C(=O)N(c3ccccc3)C(=O)C2=C(C)C)c2ccc(OC)cc2)cc1	4.1 µM (inactive)
Cc1cccc(C)c1NC(=O)Nc1ccc(S(N)(=O)=O)cc1	> 100 µM (inactive)
O=C1c2c(ccc3c2CCC3)CC1Cc1ccc2c(c1)CCC2 (centres undefined)	9.91 µM (inactive)
CN1CCOC1(C)c1ccccc1 (centres undefined)	> 100 µM (inactive)
CC(=O)N1C(c2[nH]c3ccccc3c2Cc2ccccc2)CCN1c1ccccc1 (centres undefined)	6.49 µM (inactive)
CC(C)c1cc2c(O)c(c1)Cc1cc(C(C)C)cc(c1O)Cc1cc(C(C)C)cc(c1O)Cc1cc(C(C)C)cc(c1O)C2	> 100 µM (inactive)
